# system under test: T1, human neonatal Fc receptor (hFcRn) (human, UniProt P55899 24-290; P61769 21-119)
# T1 construct: Biotinylated in the ELISA, Octet and yeast assays; also called human FcRn; huFcRn
# T1 sequence (P55899 24-290 limits assumed, chain 1 of 2): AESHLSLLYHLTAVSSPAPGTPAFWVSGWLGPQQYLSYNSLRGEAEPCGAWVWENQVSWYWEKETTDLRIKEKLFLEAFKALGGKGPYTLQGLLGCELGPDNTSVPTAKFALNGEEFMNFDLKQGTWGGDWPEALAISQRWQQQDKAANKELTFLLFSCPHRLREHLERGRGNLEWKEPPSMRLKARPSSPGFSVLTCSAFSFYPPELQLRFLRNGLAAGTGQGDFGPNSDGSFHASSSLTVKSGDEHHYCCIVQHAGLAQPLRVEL
# T1 sequence (P61769 21-119 limits assumed, chain 2 of 2): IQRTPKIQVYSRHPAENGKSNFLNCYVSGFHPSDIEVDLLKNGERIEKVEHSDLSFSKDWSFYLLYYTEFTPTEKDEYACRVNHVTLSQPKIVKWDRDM
# test summary: phage ELISA pH 7.4;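 also: higher score means stronger binding and above about 3 to 5 exceeds background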
With a cut-off of 0.6, any ELISA score strictly below it is called T; any ELISA score meeting it or above is called F.

>  <binder>
L5 isolate with insertion SEQ ID NO: 444 (other) EPKSCDKTHTCPPCPAPELLGGPSVFLFPPKPKDTLMISRTPEVTCVVVDVSHEDPEVKFNWYVDGVEVHNAKTKPREEQYNSTYRVVSVLTVLHQDWLNGKEYKCKVSNKALPAPIEKTISKAKGQPREPQVYTLPPSRDELTKNQVSLTCLVKGFYPSDIAVEWESNGGCHAPQWECGGGQPENNYKTTPPVLDSDGSFFLYSKLTVDKSRWQQGNVFSCSVMHEALHNHYTQKSLSLSPGK

>  <discrete label>
T

$$$$
>  <binder>
L5 isolate with insertion SEQ ID NO: 428 (other) EPKSCDKTHTCPPCPAPELLGGPSVFLFPPKPKDTLMISRTPEVTCVVVDVSHEDPEVKFNWYVDGVEVHNAKTKPREEQYNSTYRVVSVLTVLHQDWLNGKEYKCKVSNKALPAPIEKTISKAKGQPREPQVYTLPPSRDELTKNQVSLTCLVKGFYPSDIAVEWESNGGCEMENAWCGGGQPENNYKTTPPVLDSDGSFFLYSKLTVDKSRWQQGNVFSCSVMHEALHNHYTQKSLSLSPGK

>  <discrete label>
T

$$$$
>  <binder>
L5 isolate with insertion SEQ ID NO: 483 (other) EPKSCDKTHTCPPCPAPELLGGPSVFLFPPKPKDTLMISRTPEVTCVVVDVSHEDPEVKFNWYVDGVEVHNAKTKPREEQYNSTYRVVSVLTVLHQDWLNGKEYKCKVSNKALPAPIEKTISKAKGQPREPQVYTLPPSRDELTKNQVSLTCLVKGFYPSDIAVEWESNGGCPQHGEMCGGGQPENNYKTTPPVLDSDGSFFLYSKLTVDKSRWQQGNVFSCSVMHEALHNHYTQKSLSLSPGK

>  <discrete label>
T

$$$$
>  <binder>
L5 isolate with insertion SEQ ID NO: 459 (other) EPKSCDKTHTCPPCPAPELLGGPSVFLFPPKPKDTLMISRTPEVTCVVVDVSHEDPEVKFNWYVDGVEVHNAKTKPREEQYNSTYRVVSVLTVLHQDWLNGKEYKCKVSNKALPAPIEKTISKAKGQPREPQVYTLPPSRDELTKNQVSLTCLVKGFYPSDIAVEWESNGGCPGHEFRCGGGQPENNYKTTPPVLDSDGSFFLYSKLTVDKSRWQQGNVFSCSVMHEALHNHYTQKSLSLSPGK

>  <discrete label>
F

$$$$
>  <binder>
L5 isolate with insertion SEQ ID NO: 393 (other) EPKSCDKTHTCPPCPAPELLGGPSVFLFPPKPKDTLMISRTPEVTCVVVDVSHEDPEVKFNWYVDGVEVHNAKTKPREEQYNSTYRVVSVLTVLHQDWLNGKEYKCKVSNKALPAPIEKTISKAKGQPREPQVYTLPPSRDELTKNQVSLTCLVKGFYPSDIAVEWESNGGCGHGWIFCGGGQPENNYKTTPPVLDSDGSFFLYSKLTVDKSRWQQGNVFSCSVMHEALHNHYTQKSLSLSPGK

>  <discrete label>
F

$$$$
>  <binder>
L5 isolate with insertion SEQ ID NO: 437 (other) EPKSCDKTHTCPPCPAPELLGGPSVFLFPPKPKDTLMISRTPEVTCVVVDVSHEDPEVKFNWYVDGVEVHNAKTKPREEQYNSTYRVVSVLTVLHQDWLNGKEYKCKVSNKALPAPIEKTISKAKGQPREPQVYTLPPSRDELTKNQVSLTCLVKGFYPSDIAVEWESNGGCNVLDLFCGGGQPENNYKTTPPVLDSDGSFFLYSKLTVDKSRWQQGNVFSCSVMHEALHNHYTQKSLSLSPGK

>  <discrete label>
T

$$$$
>  <binder>
L5 isolate with insertion SEQ ID NO: 435 (other) EPKSCDKTHTCPPCPAPELLGGPSVFLFPPKPKDTLMISRTPEVTCVVVDVSHEDPEVKFNWYVDGVEVHNAKTKPREEQYNSTYRVVSVLTVLHQDWLNGKEYKCKVSNKALPAPIEKTISKAKGQPREPQVYTLPPSRDELTKNQVSLTCLVKGFYPSDIAVEWESNGGCKRENPYCGGGQPENNYKTTPPVLDSDGSFFLYSKLTVDKSRWQQGNVFSCSVMHEALHNHYTQKSLSLSPGK

>  <discrete label>
F

$$$$
>  <binder>
L5 isolate with insertion SEQ ID NO: 430 (other) EPKSCDKTHTCPPCPAPELLGGPSVFLFPPKPKDTLMISRTPEVTCVVVDVSHEDPEVKFNWYVDGVEVHNAKTKPREEQYNSTYRVVSVLTVLHQDWLNGKEYKCKVSNKALPAPIEKTISKAKGQPREPQVYTLPPSRDELTKNQVSLTCLVKGFYPSDIAVEWESNGGCHDPEPFCGGGQPENNYKTTPPVLDSDGSFFLYSKLTVDKSRWQQGNVFSCSVMHEALHNHYTQKSLSLSPGK

>  <discrete label>
T

$$$$
>  <binder>
L6B isolate with insertion SEQ ID NO: 471 (other) EPKSCDKTHTCPPCPAPELLGGPSVFLFPPKPKDTLMISRTPEVTCVVVDVSHEDPEVKFNWYVDGVEVHNAKTKPREEQYNSTYRVVSVLTVLHQDWLNGKEYKCKVSNKALPAPIEKTISKAKGQPREPQVYTLPPSRDELGGCLRNFMKQSCGGTKNQVSLTCLVKGFYPSDIAVEWESNGQPENNYKTTPPVLDSDGSFFLYSKLTVDKSRWQQGNVFSCSVMHEALHNHYTQKSLSLSPGK

>  <discrete label>
T

$$$$
